Molecular target: Calpain-2 catalytic subunit (Sus scrofa, UniProt P43367)
Sequence (P43367 whole entry): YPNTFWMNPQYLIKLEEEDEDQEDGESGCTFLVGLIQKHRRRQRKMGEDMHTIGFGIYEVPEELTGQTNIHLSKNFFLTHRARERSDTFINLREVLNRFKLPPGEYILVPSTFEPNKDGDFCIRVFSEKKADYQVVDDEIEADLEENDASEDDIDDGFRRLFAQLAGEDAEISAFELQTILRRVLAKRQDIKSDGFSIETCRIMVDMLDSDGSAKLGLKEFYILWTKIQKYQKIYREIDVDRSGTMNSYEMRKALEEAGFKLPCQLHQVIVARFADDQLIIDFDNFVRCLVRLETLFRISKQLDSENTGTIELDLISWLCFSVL
Experiment: pig calpain II inhibitor potency, dose response, biochemical, fluorogenic peptide substrate (AID 1420)
Format: functional
PROPERTY NAME: IC50

# SMILES REPR, IC50
measured = [
    ("CC(=O)Oc1ccc(-c2cccc(C(=O)OCC(=O)N(C)c3ccccc3)c2)cc1", "14.2 µM (not active)"),
    ("Cc1cccc(NC(S)=NCCSc2ccc(Cl)cc2)c1", "3.87 µM (not active)"),
    ("CC(C)C(=O)N1CCN(c2ccccc2N)CC1", "0.734 µM (not active)"),
]

Now look at this entry.
Value lookup for IC50; key = COc1ccc(C(=O)N2CCN(c3ncnc4c(-c5ccccc5)nsc34)CC2)cc1 4.3 µM (not active)
